Recorded values, source ChEMBL document CHEMBL1201862.

# Test system: HT-29
# Method summary: NCI tumour cell line growth inhibition, 48 h
The source made the active and inactive calls. Cut-off read from the data, not from the text of the source: active = GI50 up to about 1.1 µM and inactive = higher.
Experimental readout: GI50

Known GI50 results, listed for orientation:
{"Molecule": "CC[C@H](C)[C@H](NC(=O)[C@@]1(O)[C@H](O)[C@]2(CC)C=CCN3CC[C@@]4(c5cc(Br)c(OC)cc5N(C)[C@@H]14)[C@@H]32)C(=O)OC", "Assay result": "11.6 µM (inactive)"}
{"Molecule": "CCOC(=O)NC(=O)c1cn(-c2ccc(CCOC(=O)CCCCCCCCC(=O)OCCc3ccc(-n4cc(C(=O)NC(=O)OCC)c(=O)[nH]c4=O)cc3)cc2)c(=O)[nH]c1=O", "Assay result": "> 100 µM (inactive)"}
{"Molecule": "CCN(CC)CCCC(C)Nc1c(Sc2cnc3cc(Cl)ccc3c2NC(C)CCCN(CC)CC)cnc2cc(Cl)ccc12 (centres undefined)", "Assay result": "1.65 µM (inactive)"}
{"Molecule": "COc1ccc(SCc2cc(OC)ccc2OC)cc1", "Assay result": "13.7 µM (inactive)"}
{"Molecule": "CCN(CC)c1ccc2cc(C(=O)Nc3ccc(C)cc3)c(=N)oc2c1", "Assay result": "> 100 µM (inactive)"}

For HT-29, provide GI50 of CSc1ncc2c(C#N)c3n(C)c4ccccc4n3c(=O)c2n1 please.
> 100 µM (inactive)

Next molecule up: C=CCOCn1ccc(=O)[nH]c1=O
> 100 µM (inactive)

Please answer likewise for CC(SC(=O)Nc1ccc(/N=N/c2ccccc2)cc1)C(=O)O (centres undefined)
68.4 µM (inactive)

Now this one: Cc1nc(Cc2n[nH]c(C)n2)n[nH]1
> 100 µM (inactive)
